Data origin: patent US5276053A

- target_or_test_system: phencyclidine (PCP) receptors
- test_summary: Inhibition of [^3 H]TCP receptor binding (RBS1)
Counter-ions that a name gives are not always drawn.
measure_name: pIC50
When answering, recall that pIC50 equals minus log10 of the concentration in mol/L, and write that number alone.

[[record]]
molecule = "N[C@]12CCCC[C@H]1CCc1ccccc12 (relative stereo) [Example 2, monohydrochloride]"
reported_value = 7.70


Field pIC50 (entry c1csc(C2(N3CCCCC3)CCCCC2)c1 [TCP, 1[1-(2-thienyl)cyclohexyl]piperidine] ) reads 8.05

Field pIC50 (entry CN[C@]12CCCC[C@H]1CCc1ccccc12 (relative stereo) [Example 4, monohydrochloride] ) reads 7.82

Field pIC50 (entry CNC12CCCCC1Cc1ccccc12 (centres unmarked) [* (X = CH2)] ) reads 7.80

Field pIC50 (entry C=CCN[C@]12CCCC[C@H]1CCc1ccccc12 (relative stereo) [Example 5, monohydrochloride] ) reads 7.00
